System: PC-3
Assay: NCI tumour cell line growth inhibition, 48 h
Active and inactive are the calls of the source. Rule as the data show it: active = GI50 up to about 1.1 µM and inactive = higher.
// allowed return values: active, inactive

Examples from the recorded data:
compound: CC1=C(C)C(=O)C(C2=CC(=O)C=CC2=O)=C(C2=CC(=O)C=CC2=O)C1=O
measured_target: PC-3
label_value: inactive
--
compound: C[N+]1(C)[C@@H]2CC[C@H]1C[C@@H](OC(=O)C(CO)c1ccccc1)C2 (stereo not given in full) [ATROPINE METHYLBROMIDE]
measured_target: PC-3
label_value: inactive

### Prompt For this compound, state the assay outcome: OCCOCCN1CCN(CCCN2c3ccccc3Sc3ccc(C(F)(F)F)cc32)CC1
### Response inactive

### Prompt For this compound, state the assay outcome: COC(=O)C1(Cc2ccc(C)cc2)Cc2c(C)cccc2C1=O (stereo not given)
### Response inactive

### Prompt For this compound, state the assay outcome: COc1cc2c(cc1OC)C(C1CC1)ON(C)CC2 (stereo not given)
### Response inactive
